- tgt: SARS-CoV-2 main protease (M^pro) (Severe acute respiratory syndrome coronavirus 2, UniProt P0DTD1)
- assay-protocol: biochemical
- condition-parameters: M^pro (0.3 µM) incubated 15 min with compound, TSAVLQ/SGFRK-NH2 peptide (4 µM), 10 min reaction; read-out: SPE-MS pIC50 (converted)

mol-smiles: O=c1c2cnccc2sn1-c1ccccc1
IC50 [nM]: 427
--
mol-smiles: COC(=O)CCn1sc2ccccc2c1=O
IC50 [nM]: 389
--
mol-smiles: CC(C)CCn1sc2ccc(Br)cc2c1=O
IC50 [nM]: 339
--
mol-smiles: O=c1c2cc(Br)ccc2sn1-c1ccccc1
IC50 [nM]: 339
--
mol-smiles: O=C1C[C@H](Cn2sc3ccccc3c2=O)CN1
IC50 [nM]: 2510
--
mol-smiles: O=c1c2ccccc2sn1Cc1ccccc1
IC50 [nM]: 437
--
mol-smiles: CC(C)CCn1sc2ccccc2c1=O
IC50 [nM]: 417

###

- tgt: SARS-CoV-2 main protease (M^pro) (Severe acute respiratory syndrome coronavirus 2, UniProt P0DTD1)
- assay-protocol: biochemical
- condition-parameters: 50 nM M^pro, […] substrate, pH 7.3, 15 min pre-incubation; read-out: FRET pIC50 (converted)
Catalogue of molecules with associated IC50

mol-smiles: O=c1c2cc(Br)ccc2sn1-c1ccccc1
IC50 / µM: 0.0309

mol-smiles: O=c1c2ccccc2sn1CC1CCCCC1
IC50 / µM: 0.933

mol-smiles: O=c1c2ccccc2sn1Cc1ccccc1
IC50 / µM: 0.178

mol-smiles: CC(C)CCn1sc2c(Br)cccc2c1=O
IC50 / µM: 93.3

###

- tgt: SARS-CoV-2 main protease (M^pro) (Severe acute respiratory syndrome coronavirus 2, UniProt P0DTD1)
- assay-protocol: protein-observed mass spectrometry (POMS) under denaturing conditions, number of covalent reactions
- Type: binding
- condition-parameters: 40 μM compound, 2 μM M^pro, 20 mM HEPES, pH 7.5, 50 mM NaCl; covalent reactions with M^pro
Recorded Apparent max. no. of reactions values for a group of molecules are listed next.
assay-endpoint: Apparent max. no. of reactions

molecule: COC(=O)CCn1sc2ccccc2c1=O [Compound 11]
endpoint-value: 6
--
molecule: O=c1c2ccccc2[se]n1-c1ccccc1 [Compound 1, ebselen, reference compound]
endpoint-value: 12/12
--
molecule: O=c1c2ccccc2sn1-c1ccccc1 [Compound 3a]
endpoint-value: 11/11
--
molecule: CC(C)CCn1sc2ccccc2c1=O [Compound 4a]
endpoint-value: 6
--
molecule: Cc1cccc2c(=O)n(CCC(C)C)sc12 [Compound 4b]
endpoint-value: 0
--
molecule: CCCCCn1sc2ccccc2c1=O [Compound 7]
endpoint-value: 5
--
molecule: O=c1[nH]sc2ccccc12 [Compound 2]
endpoint-value: 6
--
molecule: CC(C)CCn1sc2ccc(Br)cc2c1=O [Compound 4d]
endpoint-value: 2

###

- tgt: SARS-CoV-2 main protease (M^pro) (Severe acute respiratory syndrome coronavirus 2)
- assay-protocol: biochemical
- condition-parameters: FRET pIC50, 50 nM M^pro, […] substrate, pH 7.3, 15 min pre-incubation
assay-endpoint: IC50

mol-smiles: COCCn1sc2ccccc2c1=O
tgt: SARS-CoV-2 main protease (M^pro) (Severe acute respiratory syndrome coronavirus 2)
assay-endpoint: IC50
endpoint-value: 776 nM

###

- tgt: SARS-CoV-2 main protease (M^pro) (Severe acute respiratory syndrome coronavirus 2)
- assay-protocol: protein-observed mass spectrometry (POMS) under denaturing conditions, number of covalent reactions
- Format: binding
- condition-parameters: 40 μM compound, 2 μM M^pro, 20 mM HEPES, pH 7.5, 50 mM NaCl; covalent reactions with M^pro
assay-endpoint: most dominant no. of reactions

mol-smiles: COC(=O)CCn1sc2ccccc2c1=O
assay-endpoint: most dominant no. of reactions
endpoint-value: 2
--
mol-smiles: COCCn1sc2ccccc2c1=O
assay-endpoint: most dominant no. of reactions
endpoint-value: 2
--
mol-smiles: CC(C)CCn1sc2ccc(Br)cc2c1=O
assay-endpoint: most dominant no. of reactions
endpoint-value: 0
--
mol-smiles: CCCCCn1sc2ccccc2c1=O
assay-endpoint: most dominant no. of reactions
endpoint-value: 4
--
mol-smiles: Cc1cccc2c(=O)n(-c3ccccc3)sc12
assay-endpoint: most dominant no. of reactions
endpoint-value: 0
--
mol-smiles: O=c1[nH]sc2ccccc12
assay-endpoint: most dominant no. of reactions
endpoint-value: 2
--
mol-smiles: O=c1c2ccccc2sn1-c1ccccn1
assay-endpoint: most dominant no. of reactions
endpoint-value: 2
--
mol-smiles: O=c1c2cnccc2sn1-c1ccccc1
assay-endpoint: most dominant no. of reactions
endpoint-value: 5
--
mol-smiles: CC(C)CCn1sc2ccccc2c1=O
assay-endpoint: most dominant no. of reactions
endpoint-value: 4
--
mol-smiles: O=c1c2ccccc2sn1CC1CCCCC1
assay-endpoint: most dominant no. of reactions
endpoint-value: 4

###

- tgt: UniProt P0DTD1
- assay-protocol: biochemical
- condition-parameters: 50 nM M^pro, […] substrate, pH 7.3, 15 min pre-incubation; read-out: FRET IC50

molecule: CCCCCn1sc2ccccc2c1=O [Compound 7]
IC50: ~410 nM

molecule: CC(C)CCn1sc2ccccc2c1=O [Compound 4a]
IC50: ~320 nM

molecule: O=c1c2ccccc2sn1-c1ccccc1 [Compound 3a]
IC50: ~130 nM

molecule: CC(C)CCn1sc2ccc(Br)cc2c1=O [Compound 4d]
IC50: ~210 nM

###

- tgt: UniProt P0DTD1
- assay-protocol: biochemical
- condition-parameters: M^pro (0.3 µM) incubated 15 min with compound, TSAVLQ/SGFRK-NH2 peptide (4 µM), 10 min reaction; read-out: SPE-MS IC50
pIC50: −log10 of the molar value.

mol-smiles: Cc1cccc2c(=O)n(CCC(C)C)sc12
tgt: UniProt P0DTD1
pIC50: < 4.00

mol-smiles: Cc1cccc2c(=O)n(-c3ccccc3)sc12
tgt: UniProt P0DTD1
pIC50: < 4.00

mol-smiles: CC(C)CCn1sc2c(Br)cccc2c1=O
tgt: UniProt P0DTD1
pIC50: < 4.00

###

Entries and their measured FRET pIC50 / apparent max. no. of reactions follow.
- tgt: SARS-CoV-2 main protease (M^pro) (Severe acute respiratory syndrome coronavirus 2)
- assay-protocol: biochemical
- condition-parameters: ratio of FRET pIC50 to number of reactions observed by MS
assay-endpoint: FRET pIC50 / apparent max. no. of reactions

mol-smiles: COC(=O)CCn1sc2ccccc2c1=O
tgt: SARS-CoV-2 main protease (M^pro) (Severe acute respiratory syndrome coronavirus 2)
endpoint-value: 1.1
//
mol-smiles: O=c1c2cnccc2sn1-c1ccccc1
tgt: SARS-CoV-2 main protease (M^pro) (Severe acute respiratory syndrome coronavirus 2)
endpoint-value: 0.7
//
mol-smiles: O=c1c2ccccc2sn1Cc1ccccc1
tgt: SARS-CoV-2 main protease (M^pro) (Severe acute respiratory syndrome coronavirus 2)
endpoint-value: 1.1
